test: Tmax in Sprague-Dawley rat at 5 mg/kg, po up to 24 hrs by LC-MS/MS analysis; format: ADME, organism-based; details: in vivo
recorded.metric: Tmax (h)
Give bare numbers, in h.

// query Tmax value for entry C[C@H]1CO[C@@H]2Cn3cc(C(=O)NCc4ccc(F)nc4F)c(=O)c(O)c3C(=O)N12 3

---

assay: Thermodynamic solubility of compound in plON buffer at 2 mg after 24 hrs; type: physicochemical; conditions: read-out: Therm_solubility
Hi there, I'd appreciate the recorded solubility thermodynamic at 24 h for every entry that follows.
Numbers only, in µg/mL.

Take a look at these entries with their results.
C[C@H]1CO[C@@H]2Cn3cc(C(=O)NCc4ccc(F)nc4F)c(=O)c([O-])c3C(=O)N12.[Na+]	1680
C[C@H]1CO[C@@H]2Cn3cc(C(=O)NCc4nn(C)c(Cl)c4Cl)c(=O)c(O)c3C(=O)N12	318

Please give solubility thermodynamic at 24 h, item by item, for the list that follows.
1. Cc1cc2c(cc1CNC(=O)c1cn3c(c(O)c1=O)C(=O)N1[C@@H](C)CO[C@@H]1C3)OCCO2
2. C[C@H]1CO[C@@H]2Cn3cc(C(=O)NCc4cc5c(cc4Br)OCO5)c(=O)c(O)c3C(=O)N12
3. C[C@H]1CO[C@@H]2Cn3cc(C(=O)NCc4cccc5cccnc45)c(=O)c(O)c3C(=O)N12
4. C[C@H]1CO[C@@H]2Cn3cc(C(=O)NCc4ccc(F)nc4F)c(=O)c(O)c3C(=O)N12
5. C[C@H]1CO[C@@H]2Cn3cc(C(=O)NCc4ncc(F)cc4F)c(=O)c(O)c3C(=O)N12
6. C[C@@H]1CCO[C@H]2Cn3cc(C(=O)NCc4ccc(F)nc4F)c(=O)c(O)c3C(=O)N12
7. C[C@H]1CO[C@@H]2Cn3cc(C(=O)NCc4ccnc5ccccc45)c(=O)c(O)c3C(=O)N12
8. C[C@H]1CO[C@@H]2Cn3cc(C(=O)NCc4ccncc4F)c(=O)c(O)c3C(=O)N12

1. 70
2. 21
3. 6
4. 232
5. 196
6. 80
7. 8
8. 91

Please give solubility thermodynamic at 24 h, item by item, for the list that follows.
1. C[C@H]1CO[C@@H]2Cn3cc(C(=O)NCc4cccs4)c(=O)c(O)c3C(=O)N12
2. C[C@H]1CO[C@@H]2Cn3cc(C(=O)NCc4c(F)cncc4F)c(=O)c(O)c3C(=O)N12
3. C[C@H]1CO[C@@H]2Cn3cc(C(=O)NCc4ccc5nonc5c4)c(=O)c(O)c3C(=O)N12

1: 24; 2: 380; 3: 3.2

---

assay: Drug concentration in Sprague-Dawley rat at 10 mg/kg, po after 24 hrs by LC-MS/MS analysis; format: ADME, organism-based; settings: in vivo, read-out: Drug uptake
recorded.metric: concentration at 24 h
Report field: quantity (unit follows the number).

// query concentration at 24 h value for entry C[C@H]1CO[C@@H]2Cn3cc(C(=O)NCc4ccc5nonc5c4)c(=O)c(O)c3C(=O)N12 4440 ng/mL

---

test: Protein binding in human plasma at 1 uM after 4 hrs by LC-MS/MS analysis; type: ADME, cell-free; conditions: read-out: PPB
Hi there, I'd appreciate the recorded fraction unbound at 4 h, 1 µM for every entry that follows.
Answers are plain numbers.

C[C@H]1CO[C@@H]2Cn3cc(C(=O)NCc4ccc5nonc5c4)c(=O)c(O)c3C(=O)N12	0.001

Now consider the entry below.
// query fraction unbound at 4 h, 1 µM value for entry C[C@H]1CO[C@@H]2Cn3cc(C(=O)NCc4ccc(F)nc4F)c(=O)c(O)c3C(=O)N12 0.001

---

experiment: AUClast in Sprague-Dawley rat at 10 mg/kg, po up to 24 hrs by LC-MS/MS analysis; assay type: ADME, organism-based; design: route oral, dose 10 mg/kg, time <=24; conditions: in vivo
recorded.metric: AUC(0-t) at 24 h (ng·h/mL)
Give bare numbers, in ng·h/mL.

// query AUC(0-t) at 24 h value for entry C[C@H]1CO[C@@H]2Cn3cc(C(=O)NCc4ccc5nonc5c4)c(=O)c(O)c3C(=O)N12 66900

---

test: Drug concentration in Sprague-Dawley rat at 5 mg/kg, po after 24 hrs by LC-MS/MS analysis; format: ADME, organism-based; conditions: in vivo, read-out: Drug uptake
recorded.metric: concentration at 24 h (ng/mL)
Numbers only, in ng/mL.

// query concentration at 24 h value for entry C[C@H]1CO[C@@H]2Cn3cc(C(=O)NCc4ccc(F)nc4F)c(=O)c(O)c3C(=O)N12 4440

---

assay: Cmax in Sprague-Dawley rat at 10 mg/kg, po up to 24 hrs by LC-MS/MS analysis; type: ADME, organism-based; design: route oral, dose 10 mg/kg, time <=24; details: in vivo
recorded.metric: Cmax (ng/mL)
One number for each entry, in ng/mL.

// query Cmax value for entry C[C@H]1CO[C@@H]2Cn3cc(C(=O)NCc4ccc5nonc5c4)c(=O)c(O)c3C(=O)N12 3680

---

experiment: Cmax in Sprague-Dawley rat at 2 mg/kg, iv up to 24 hrs by LC-MS/MS analysis; format: ADME, organism-based; parameters: route intravenous, dose 2 mg/kg, time <=24; conditions: in vivo
recorded.metric: Cmax (ng/mL)
Answers are plain numbers, in ng/mL.

// query Cmax value for entry C[C@H]1CO[C@@H]2Cn3cc(C(=O)NCc4ccc5nonc5c4)c(=O)c(O)c3C(=O)N12 37200

---

assay: Tmax in Sprague-Dawley rat at 1 mg/kg, iv up to 24 hrs by LC-MS/MS analysis; type: ADME, organism-based; conditions: in vivo
recorded.metric: Tmax (min)
Give bare numbers, in min.

// query Tmax value for entry C[C@H]1CO[C@@H]2Cn3cc(C(=O)NCc4ccc(F)nc4F)c(=O)c(O)c3C(=O)N12 4.8

---

assay: Elimination rate constant Sprague-Dawley rat at 5 mg/kg, po up to 24 hrs by LC-MS/MS analysis; assay type: ADME, organism-based; conditions: in vivo
recorded.metric: k el at 24 h (s⁻¹)
One number for each entry, in s⁻¹.

// query k el at 24 h value for entry C[C@H]1CO[C@@H]2Cn3cc(C(=O)NCc4ccc(F)nc4F)c(=O)c(O)c3C(=O)N12 1.11e-05

---

assay: Stability in rat liver microsomes assessed as parent compound remaining at 1 uM up to 24 hrs by LC-MS/MS analysis; format: ADME, Microsome; settings: read-out: Stabilty
Hi there, I'd appreciate the recorded remaining at 24 h, 1 µM for every entry that follows.
Numbers only, in %.

C[C@H]1CO[C@@H]2Cn3cc(C(=O)NCc4ccc(F)nc4F)c(=O)c(O)c3C(=O)N12	83.8

Now consider the entry below.
// query remaining at 24 h, 1 µM value for entry C[C@H]1CO[C@@H]2Cn3cc(C(=O)NCc4ccc5nonc5c4)c(=O)c(O)c3C(=O)N12 110

---

test system: Human immunodeficiency virus 1; test: Antiviral activity against HIV1 3B infected in human CEM-SS cells assessed as reduction in cytopathic effect after 4 days; assay type: functional, organism-based; conditions: cem-ss
recorded.metric: EC50 (nM)
Answers are plain numbers, in nM.

C[C@H]1CO[C@@H]2Cn3cc(C(=O)NCc4ccc(F)nc4F)c(=O)c([O-])c3C(=O)N12.[Na+]	4.8

Now consider the entry below.
// query EC50 value for entry C[C@H]1CO[C@@H]2Cn3cc(C(=O)NCc4ccc(F)nc4F)c(=O)c(O)c3C(=O)N12 0.24

---

test: Stability in rat plasma assessed as parent compound remaining at 1 uM up to 24 hrs by LC-MS/MS analysis; type: ADME, cell-free; conditions: read-out: Stabilty
recorded.metric: remaining at 24 h, 1 µM (%)
Answers are plain numbers, in %.

// query remaining at 24 h, 1 µM value for entry C[C@H]1CO[C@@H]2Cn3cc(C(=O)NCc4ccc(F)nc4F)c(=O)c(O)c3C(=O)N12 94.5

---

test: Thermodynamic solubility of compound in water at 2 mg after 24 hrs; type: physicochemical; settings: read-out: Therm_solubility
# binarize solubility thermodynamic at 24 h: threshold 60 µg/mL inclusive, high side Met, low side Not met

These solved cases illustrate the format of a correct answer.
C[C@@H]1CCO[C@H]2Cn3cc(C(=O)NCc4ccc(F)nc4F)c(=O)c(O)c3C(=O)N12	Not met
C[C@H]1CO[C@@H]2Cn3cc(C(=O)NCc4ccnc5ccccc45)c(=O)c(O)c3C(=O)N12	Not met
C[C@H]1CO[C@@H]2Cn3cc(C(=O)NCc4nn(C)c(Cl)c4Cl)c(=O)c(O)c3C(=O)N12	Met
C[C@H]1CO[C@@H]2Cn3cc(C(=O)NCc4ccc(F)nc4F)c(=O)c(O)c3C(=O)N12	Met
C[C@H]1CO[C@@H]2Cn3cc(C(=O)NCc4ncc(F)cc4F)c(=O)c(O)c3C(=O)N12	Met

Would you say C[C@H]1CO[C@@H]2Cn3cc(C(=O)NCc4cccc5cccnc45)c(=O)c(O)c3C(=O)N12 shows solubility thermodynamic at 24 h at minimum 60 µg/mL? Not met

Would you say C[C@H]1CO[C@@H]2Cn3cc(C(=O)NCc4ccc(F)nc4F)c(=O)c([O-])c3C(=O)N12.[Na+] shows solubility thermodynamic at 24 h at minimum 60 µg/mL? Met

Would you say C[C@H]1CO[C@@H]2Cn3cc(C(=O)NCc4ccncc4F)c(=O)c(O)c3C(=O)N12 shows solubility thermodynamic at 24 h at minimum 60 µg/mL? Met
